Item-by-item account of IC50
# system: ACC2 (Homo sapiens (Human))
# Sequence (O00763 whole entry, species assumed): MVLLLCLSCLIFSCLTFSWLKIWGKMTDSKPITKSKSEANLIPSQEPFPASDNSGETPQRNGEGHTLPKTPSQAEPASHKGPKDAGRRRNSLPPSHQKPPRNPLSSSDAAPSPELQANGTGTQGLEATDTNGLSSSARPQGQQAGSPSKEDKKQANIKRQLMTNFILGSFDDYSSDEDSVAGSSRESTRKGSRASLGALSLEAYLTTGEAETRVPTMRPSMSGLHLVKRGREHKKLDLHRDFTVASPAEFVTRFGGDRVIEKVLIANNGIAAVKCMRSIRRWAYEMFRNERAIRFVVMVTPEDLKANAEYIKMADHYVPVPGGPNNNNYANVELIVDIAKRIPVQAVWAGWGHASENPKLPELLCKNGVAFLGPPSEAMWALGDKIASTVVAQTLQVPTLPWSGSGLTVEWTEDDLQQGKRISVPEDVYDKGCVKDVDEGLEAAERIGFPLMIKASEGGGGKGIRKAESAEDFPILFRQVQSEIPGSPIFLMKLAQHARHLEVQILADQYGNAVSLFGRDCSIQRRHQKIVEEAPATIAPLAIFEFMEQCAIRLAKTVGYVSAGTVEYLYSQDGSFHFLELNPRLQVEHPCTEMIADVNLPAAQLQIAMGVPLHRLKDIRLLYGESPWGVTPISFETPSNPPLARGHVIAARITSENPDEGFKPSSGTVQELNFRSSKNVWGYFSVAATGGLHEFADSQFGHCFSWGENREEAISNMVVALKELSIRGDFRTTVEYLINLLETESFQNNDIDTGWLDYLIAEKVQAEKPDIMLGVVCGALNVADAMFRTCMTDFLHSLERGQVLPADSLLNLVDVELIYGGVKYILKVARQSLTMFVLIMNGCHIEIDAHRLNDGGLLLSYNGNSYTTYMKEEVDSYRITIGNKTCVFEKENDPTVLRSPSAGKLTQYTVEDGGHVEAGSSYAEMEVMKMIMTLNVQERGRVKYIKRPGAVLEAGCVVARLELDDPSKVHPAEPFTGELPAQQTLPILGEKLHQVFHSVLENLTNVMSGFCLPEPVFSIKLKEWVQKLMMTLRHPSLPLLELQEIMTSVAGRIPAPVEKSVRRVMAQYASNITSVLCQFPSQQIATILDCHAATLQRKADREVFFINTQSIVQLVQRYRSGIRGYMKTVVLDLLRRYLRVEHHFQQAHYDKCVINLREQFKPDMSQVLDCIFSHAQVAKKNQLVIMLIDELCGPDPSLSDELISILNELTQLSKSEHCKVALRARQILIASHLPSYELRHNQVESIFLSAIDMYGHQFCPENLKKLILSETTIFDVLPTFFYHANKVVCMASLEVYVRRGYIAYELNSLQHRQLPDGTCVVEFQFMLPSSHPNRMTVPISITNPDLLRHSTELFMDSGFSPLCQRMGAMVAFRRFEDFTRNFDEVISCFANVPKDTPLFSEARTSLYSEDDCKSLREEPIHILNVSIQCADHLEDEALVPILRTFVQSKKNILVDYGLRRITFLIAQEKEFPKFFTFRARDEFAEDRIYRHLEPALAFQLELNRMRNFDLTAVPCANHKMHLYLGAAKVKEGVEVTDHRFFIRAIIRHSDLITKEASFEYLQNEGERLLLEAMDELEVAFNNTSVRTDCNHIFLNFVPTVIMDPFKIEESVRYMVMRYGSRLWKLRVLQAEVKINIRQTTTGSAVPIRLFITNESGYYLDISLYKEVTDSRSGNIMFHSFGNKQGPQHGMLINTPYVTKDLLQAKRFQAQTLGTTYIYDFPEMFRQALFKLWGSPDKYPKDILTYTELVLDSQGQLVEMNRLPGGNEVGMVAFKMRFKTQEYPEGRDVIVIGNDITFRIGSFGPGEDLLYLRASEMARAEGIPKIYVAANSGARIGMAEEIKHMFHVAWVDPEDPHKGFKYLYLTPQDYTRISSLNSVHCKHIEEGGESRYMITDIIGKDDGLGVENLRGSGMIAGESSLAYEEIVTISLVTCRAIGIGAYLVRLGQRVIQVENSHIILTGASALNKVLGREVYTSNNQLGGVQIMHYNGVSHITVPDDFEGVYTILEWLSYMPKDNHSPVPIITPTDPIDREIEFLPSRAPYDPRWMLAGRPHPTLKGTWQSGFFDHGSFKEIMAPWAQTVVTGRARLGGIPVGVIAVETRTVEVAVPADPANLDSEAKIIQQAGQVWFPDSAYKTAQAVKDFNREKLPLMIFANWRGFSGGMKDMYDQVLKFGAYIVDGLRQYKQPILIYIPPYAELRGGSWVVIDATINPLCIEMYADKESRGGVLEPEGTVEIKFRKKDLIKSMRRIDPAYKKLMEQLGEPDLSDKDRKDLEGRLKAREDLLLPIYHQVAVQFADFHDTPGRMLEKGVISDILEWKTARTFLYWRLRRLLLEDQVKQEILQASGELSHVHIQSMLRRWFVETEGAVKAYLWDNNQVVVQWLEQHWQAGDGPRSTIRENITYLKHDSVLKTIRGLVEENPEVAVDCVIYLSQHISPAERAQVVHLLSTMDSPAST
# assay: In vitro ACC inhibition assay (ADP-Glo), ACC2
# Type: biochemical
# runParameters: 5 nM ACC2, 20 μM ATP, 20 μM acetyl-CoA; read-out: IC50 (μM) ACC2

Worked examples follow.
COc1ccccc1C(Cn1c(=O)n(C2(C(N)=O)CC2)c(=O)c2c(C)c(-c3ncco3)sc21)OC1CCOCC1 (stereo not shown) [Example 46] | 0.01 to 0.1 µM
CNC(=O)C1(n2c(=O)c3c(C)c(-c4ncco4)sc3n(CC(OC3CCOCC3)c3ccccc3OC)c2=O)CCC1 (stereo not shown) [Example 53] | < 0.01 µM
COc1ccccc1[C@H](Cn1c(=O)n(C2(C(=O)NS(C)(=O)=O)CC2)c(=O)c2c(C)c(-c3ncco3)sc21)OC1CCOCC1 [Example 41] | < 0.01 µM
COc1ccccc1C(Cn1c(=O)n(C2(CC(=O)N3CCOCC3)CC2)c(=O)c2c(C)c(Br)sc21)OC1CCOCC1 (stereo not shown) [Example 23] | 0.1 to 1 µM

Query :: Fill in the blank: the reported IC50 of COc1ccccc1C(O)Cn1c(=O)n(C(C)(C)C(=O)O)c(=O)c2cc(C)c(-c3ncco3)cc21 (stereo not shown) [Example 13] is ____.
Result :: > 1 µM

Query :: Request: CNC(=O)C1(n2c(=O)c3c(C)c(Br)sc3n(CC(OC3CCOCC3)c3ccccc3OC)c2=O)CCCC1 (stereo not shown) [Example 50]
Result :: 0.01 to 0.1 µM

Query :: Moving on to COCc1sc2c(c1C)c(=O)n(C1(C(=O)O)CCCC1)c(=O)n2C[C@H](CC1CCOCC1)c1ccccc1OC [Example 27]
Result :: > 1 µM

Query :: Another compound to check: COCCNC(=O)CC1(n2c(=O)c3c(C)c(-c4ncco4)sc3n(CC(OC3CCOCC3)c3ccccc3OC)c2=O)CC1 (stereo not shown) [Example 65]
Result :: 0.01 to 0.1 µM

Query :: How about COc1ccccc1C(Cn1c(=O)n(C(C)(C)C(=O)O)c(=O)c2cc(C)c(Br)cc21)OC1CCOCC1 (stereo not shown) [Example 12] ?
Result :: > 1 µM

---

# Tested on: HepG2
# assay: EC50 in HepG2
# Format: cell-based
# runParameters: HepG2; read-out: EC50 (μM) HepG2
recordedMetric: EC50

COc1ccccc1[C@H](Cn1c(=O)n(C2(C(=O)O)CC2)c(=O)c2c(C)c(Cl)sc21)OC1CCOCC1 [Example 40] | 0.1 to 1 µM

Query :: Field request: EC50 | item: COc1ccccc1C(Cn1c(=O)n(C2(CC(=O)O)CC2)c(=O)c2c(C)c(-c3ncco3)sc21)OC1CCOCC1 (stereo not shown) [Example 82]
Result :: 0.01 to 0.1 µM

Query :: Next up: COCCNC(=O)CC1(n2c(=O)c3c(C)c(-c4ncco4)sc3n(CC(OC3CCOCC3)c3ccccc3OC)c2=O)CC1 (stereo not shown) [Example 65]
Result :: > 1 µM

Query :: Same question for COc1ccccc1[C@H](Cn1c(=O)n(C2(C(=O)O)CC2)c(=O)c2c(C)c(-c3ncco3)sc21)OC1CCOCC1 [Example 33] please.
Result :: 0.01 to 0.1 µM

Query :: # iterate: COc1ccccc1C(Cn1c(=O)n(C2(C(N)=O)CCC2)c(=O)c2c(C)c(-c3ncco3)sc21)OC1CCOCC1 (stereo not shown) [Example 54]
Result :: < 0.01 µM

Query :: Another compound to check: CNC(=O)C1(n2c(=O)c3cc(Br)sc3n(C[C@H](OC3CCOCC3)c3ccccc3OC)c2=O)CC1 [Example 57]
Result :: 0.1 to 1 µM

Query :: What would you report for COc1ccccc1[C@H](Cn1c(=O)n(C(C)(C)C(=O)O)c(=O)c2c(C)c(-c3ncco3)sc21)OC1CCOCC1 [Example 8] ?
Result :: > 1 µM

Hello, the source for this data is patent US10995099B2, in case you need it.
